Hello, the source for this data is the RNAGym collection of RNA variant scans (doi:10.7554/elife.90254), in case you need it.

B1: LINE1-full (parent)
chain: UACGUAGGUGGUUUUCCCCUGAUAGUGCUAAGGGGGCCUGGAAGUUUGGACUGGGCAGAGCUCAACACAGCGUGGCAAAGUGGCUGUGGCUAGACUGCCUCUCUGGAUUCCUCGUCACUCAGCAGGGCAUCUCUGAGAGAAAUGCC

Variants of: B1
Experiment: self-cleavage, relative activity (ratio to wild type); higher = more cleavage; in vitro, sequencing; the parent is a self-cleaving ribozyme
measured.property: self-cleavage
Reply with just the number.

See these solved cases before continuing.
- mut: "U85A G93U"
  self-cleavage: 0.08
- mut: "U91C U132C"
  self-cleavage: 0.83
- mut: "U81C G126U"
  self-cleavage: 1.4

Task item: State the recorded self-cleavage for this entry: G32U U73C
Reply: 1.1

Task item: State the recorded self-cleavage for this entry: A124G A136G
Reply: 1.14

Task item: State the recorded self-cleavage for this entry: U96A U143C
Reply: 0.06

Task item: State the recorded self-cleavage for this entry: U46C A140G
Reply: 1.41

Task item: State the recorded self-cleavage for this entry: U29A A67G
Reply: 0.67

Task item: State the recorded self-cleavage for this entry: U12A A64U
Reply: 0.79

Task item: State the recorded self-cleavage for this entry: A6U U20A
Reply: 1.21

Task item: State the recorded self-cleavage for this entry: U45C A138G
Reply: 1.47
